Assay: small-molecule microarray binders of probe aNog, primary screen, biochemical, biotinylated probe, 635/667 nm fluorescence (AID 1115);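 note: probe is biotinylated aNog protein used at 0.15 µg/mL for 1 h at 4 C; z-score combines 667 nm fluorescence of each spot with its signal to noise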
Details: higher = more signal
Would you please tag the item label 1 when its composite z-score is -0.1 or above, and label 0 when it is below?

COC(=O)C(CC#Cc1ccc2c(c1)[C@]1(C(=O)N2)[C@H](c2ccc(OCCO)cc2)N2[C@H](c3ccccc3)[C@H](c3ccccc3)OC(=O)[C@H]2[C@@H]1C(=O)N1CCN(c2ncccn2)CC1)C(=O)OC	label 0
C=CCC(OC(C)=O)[C@@H]1[C@@H](N(Cc2ccc(-c3cccc(C(F)(F)F)c3)o2)C(=O)c2ccc(C)cc2)c2cc(OCCCO)ccc2N1C(=O)Cc1ccc(OC)cc1 (stereo partly specified)	label 0
Cc1ccc(N2C(=O)c3ccccc3[C@](C)(C(=O)NCc3ccccc3)[C@@H]2c2ccc(CO)cc2)nc1	label 0
O=C1[C@@H]2[C@@H](CC(COc3ccccc3)=C3[C@@H](CCc4ccccc4)OB(O)C[C@@H]32)C(=O)N1Cc1ccccc1	label 0
[N-]=[N+]=NCc1ccccc1[C@H]1OC(c2ccc(OCCCO)cc2)=N[C@@]1(CCS(=O)(=O)c1ccccc1)C(=O)NCc1ccccc1	label 1

Continue with the molecule presented below.
**Query** Dear colleague, could you confirm whether CCCCCCCCCCC(O)C1C=CC2C(=O)N(C)C(=O)C2N1Nc1cc(OC)c(OC)c(OC)c1 (stereo unspecified) has composite z-score at or above -0.1?
**Result** label 1

====

Test: inhibitors of hydroxyurea-induced Chk1 phosphorylation, primary screen, imaging, HeLa, phospho-Chk1 nuclear intensity (AID 1187); note: test concentration not given here
Details: hydroxyurea-induced phospho-Chk1 immunofluorescence imaging, higher = more signal
For each entry below, report its z-score value.
One number for each entry.

Cc1cccc([C@H]2C[C@H]3C(Br)=C[C@@H]2C(=O)[C@]32CO2)c1	-0.0027
Cc1cccc([C@H]2C[C@H]3C(I)=C[C@@H]2C(=O)[C@]32CO2)c1	-0.466
COc1ccc(NC(=O)O[C@H]2[C@@H]3OC(=O)[C@H](Cc4cccc(Br)c4)C/C=C/C[C@@H](Cc4cccc(Br)c4)C(=O)O[C@H]3[C@@H](OC)O[C@@H]2CO)cc1	0.0972
CC(C)CNC(=O)[C@@]1(C)c2ccccc2C(=O)N(Cc2cc(C(F)(F)F)cc(C(F)(F)F)c2)[C@H]1c1ccc(CO)cc1	0.447
O=C1N[C@@H](Cc2ccccc2)C(=O)N2[C@@H]1C[C@@H](C(=O)O)[C@H]2c1ccc(O)cc1	0.0853
CCOC(=O)C1=C[C@@H](C(C)(C)C)N(S(=O)(=O)c2ccc(C)cc2)[C@H]1c1ccccc1	-0.0853

Kindly give each listed record's z-score.
1. CCCNC(=O)[C@@]1(C)c2ccccc2C(=O)N(Cc2ccccc2)[C@H]1c1ccc(CO)cc1
2. C=C(C)[C@@H]1CC=C(C(O)C2C=CC3C(=O)N(c4ccccc4)C(=O)C3N2Nc2ccc(C#N)cc2)CC1 (stereo partly specified)
3. CC(C)C(=C=CC[C@@H](O)c1cccc(OCCO)c1)C[C@@H](O)COCc1ccccc1
4. COCCCNC(=O)[C@@]1(c2ccc([N+](=O)[O-])cc2)CC(=O)N(CC23CC4CC(CC(C4)C2)C3)[C@@H]1c1ccc(CO)cc1I
5. COCC(=C=CC[C@@H](O)c1ccc(OCCO)cc1)CCO
6. C[C@]1(C(=O)NCCN2CCOCC2)c2ccccc2C(=O)N(Cc2cc(F)cc(C(F)(F)F)c2)[C@H]1c1ccc(CO)cc1
7. CC1(C)C(=O)C(c2ccccc2)=C2CN3C(=O)N(CCc4ccccc4)C(=O)C3(Cc3ccc(F)cc3)C=C21 (stereo unspecified)

**Result**
1: -0.579; 2: 0.008; 3: -0.631; 4: 0.885; 5: 0.301; 6: -0.691; 7: -0.173

Value sought for every listed compound: z-score.
1. C=CCC(OC(C)=O)[C@@H]1[C@@H](N(Cc2ccc(-c3cccc(C(F)(F)F)c3)o2)C(=O)c2cccc3ccccc23)c2cc(OCCCO)ccc2N1C(=O)Cc1ccc(OC)cc1 (stereo partly specified)
2. C=CC1c2cc(O)c(OC)cc2CCN1Cc1ccc([N+](=O)[O-])o1 (stereo unspecified)
3. CCCCC(=C=CC[C@H](O)c1ccc(OCCO)cc1)C[C@H](O)c1cc(Cl)cc(Cl)c1O

**Result**
0.0284
0.406
-0.301
